# Test system: RPMI-8226
# TEST_DETAILS: NCI tumour cell line growth inhibition, 48 h
Active and inactive are the calls of the source. Rule as the data show it: active = GI50 up to about 1.1 µM and inactive = higher.
Pick one and only one: 1.0 (active), 0.0 (inactive)

What outcome does the record of this test show for O=C1C=CC(=O)c2c(O)nc(CBr)nc21 ?
0.0

Per the records of this test, what outcome belongs to COc1cc2c(cc1O)CC[C@@H]1C2CC[C@@]2(C)C1CC[C@@H]2O (stereo not given in full) ?
1.0

Identify the outcome logged in this assay for the molecule shown: O=C1/C(=C/c2cccs2)N=C(c2ccccc2)N1C1Nc2cc3c(cc2S1)NC(N1C(=O)/C(=C/c2cccs2)N=C1c1ccccc1)S3 (stereo not given)
0.0

Others:
Tell me the assay call for C/C(CC(=O)Nc1ccccc1[N+](=O)[O-])=N\NC(N)=O please.
0.0

Tell me the recorded outcome of this test for O=C(O)c1ccccc1C1c2ccc(Cl)cc2Oc2cc(Cl)ccc21 .
0.0

Which result was noted for this molecule in the test: S=C1/C(=N/c2ccccc2)N(c2ccccc2)/C(=N\c2ccccn2)N1c1ccccc1
0.0

Each molecule tested received a call. Report the one for N#CC(O)CCOCc1ccccc1 (stereo not given) .
0.0

What outcome does the record of this test show for CC1=C(O)C(=O)C=C2C1=CC=C1[C@@]2(C)CC[C@@]2(C)C3C[C@@H](C)C(=O)[C@@H](O)[C@]3(C)CC[C@]12C (stereo not given in full) ?
0.0

Could you check what this test reported for CN(C)C(=O)/N=c1\ss/c(=N\C(=S)N(C)C)n1-c1ccccc1 ?
0.0

Write down the call the test reported for this molecule. Item: O=c1[nH]c2cc(C(F)(F)F)ccc2nc1C(F)(F)F
0.0

---

# System: HCT-116
# TEST_DETAILS: NCI tumour cell line growth inhibition, 48 h
The source made the active and inactive calls. Cut-off read from the data, not from the text of the source: active = GI50 up to about 1.1 µM and inactive = higher.
QUANTITY_MEASURED: GI50

Kindly state the measured GI50 obtained for CNNC(=NS(=O)(=O)c1cc(C#N)c(NNC)cc1S)NNC with HCT-116.
> 10 µM (inactive)

GET /values?readout=GI50&system=HCT-116&item= CN(C)c1ccc2c3c(c(=O)oc2c1)CCC3
60.8 µM (inactive)

Others:
Field: GI50 (HCT-116). Entry: COc1ccc(NC(=O)C(=O)NO)c(OC)c1
18.5 µM (inactive)

Field: GI50 (HCT-116). Entry: NC(=O)c1cn(C2OC(CO)C(O)C2O)c(=O)[nH]c1=O (stereo not given)
> 100 µM (inactive)

Write down the reported GI50 of Cc1ccc(S(=O)(=O)OC(COC(=O)c2ccccc2)C(OS(=O)(=O)c2ccc(C)cc2)C(OS(=O)(=O)c2ccc(C)cc2)C(COC(=O)c2ccccc2)OS(=O)(=O)c2ccc(C)cc2)cc1 (stereo not given) , test system: HCT-116.
> 100 µM (inactive)

---

# System: RXF 393
# TEST_DETAILS: NCI tumour cell line growth inhibition, 48 h
Active and inactive are the calls of the source. Rule as the data show it: active = GI50 up to about 1.1 µM and inactive = higher.
# GI50 per entry

Consider the worked cases shown below.
Which value of GI50 has been reported for CCN(CC)CCO/N=C1\CC[C@H]2[C@@H]3CC=C4C[C@@H](O)CC[C@]4(C)[C@H]3CC[C@]12C in the records?
17.5 µM (inactive)

Bench note: what GI50 did Nc1ccc(S(=O)(=O)Nc2nc3ccccc3nc2Nc2ccc(S(N)(=O)=O)cc2)cc1 show?
20.8 µM (inactive)

# GI50 lookup, item O=C(O)c1cccc(CN2CCCCC2)c1
> 100 µM (inactive)

Would you mind telling me what GI50 value was observed for O=[N+]([O-])/C=C/c1cn(CCCCCCCCn2cc(/C=C/[N+](=O)[O-])c3ccccc32)c2ccccc12 ?
> 10 µM (inactive)

State the recorded GI50 for this entry: O=C1/C(=C/c2cccs2)N=C(c2ccccc2)N1C1Nc2cc3c(cc2S1)NC(N1C(=O)/C(=C/c2cccs2)N=C1c1ccccc1)S3 (stereo not given)
23.3 µM (inactive)

Further cases:
State the recorded GI50 for this entry: c1ccc(NC[Si]23OCCN(CCO2)CCO3)cc1
> 100 µM (inactive)

Entry Cn1c(S)nc2c(Cl)cc(Cl)cc2c1=O : reported GI50 = ?
> 100 µM (inactive)
